System: HOP-62
Experiment: NCI tumour cell line growth inhibition, 48 h
Active and inactive are the calls of the source. Cut-off read from the data, not from the text of the source: active = GI50 up to about 1.1 µM and inactive = higher. Where a SMILES comes first, the peptide text is derived from it. [ ]: non-standard residue; d: D form. The star is where a group is joined. NMeF = CN[CH](Cc1ccccc1)C(=O)O; NMeV = CN[CH](C(=O)O)C(C)C; Boc = CC(C)(C)OC(=O)*; OBn = c1ccc(CO*)cc1

>  <COMPOUND>
Cc1ncc([N+](=O)[O-])n1CC(O)Cn1cnc([N+](=O)[O-])n1 (stereo unspecified)

>  <GI50>
> 100 µM (inactive)

$$$$
>  <COMPOUND>
CCCCCCCCCCCCCC(=O)N(CCCCCCCCC)CC(O)C(O)C(OC1OC(CO)C(O)C(O)C1O)C(O)CO (stereo unspecified)

>  <GI50>
24.6 µM (inactive)

$$$$
>  <COMPOUND>
CN(C)c1ccc(/C=C2\CCc3ccccc3C2=O)cc1Br

>  <GI50>
> 100 µM (inactive)

$$$$
>  <COMPOUND>
O=C(N/N=C/c1ccc(Cl)cc1)c1ccccc1Nc1ccccc1C(=O)N/N=C/c1ccc(Cl)cc1

>  <GI50>
> 100 µM (inactive)

$$$$
>  <COMPOUND>
CC(=O)c1cccc(NC(=O)C(=O)Nn2c(N)nnc2N)c1

>  <GI50>
> 100 µM (inactive)

$$$$
>  <COMPOUND>
Cc1ccc2c(n1)C(=O)c1ccccc1C2=O

>  <GI50>
38 µM (inactive)

$$$$
>  <COMPOUND>
COC(=O)c1cc2ccc(OC(C)=O)c(OC(C)=O)c2cn1

>  <GI50>
25.5 µM (inactive)

$$$$
>  <COMPOUND>
O=C1C(NCCc2cc(Cl)c(O)c(Cl)c2)=CC(=O)c2[nH]cnc21

>  <GI50>
44 µM (inactive)

$$$$
>  <COMPOUND>
Cc1cnc2c(C)ccc([N+](=O)[O-])c2c1NCCCN(C)C

>  <GI50>
> 100 µM (inactive)

$$$$
>  <COMPOUND>
CC(C)C(NC(=O)OC(C)(C)C)C(=O)N(C)C(Cc1ccccc1)C(=O)N(C)C(C(=O)N(C)C(C(=O)OCc1ccccc1)C(C)C)C(C)C (stereo unspecified) (Boc-V[NMeF][NMeV][NMeV]-OBn; configuration not given here)

>  <GI50>
> 100 µM (inactive)

$$$$
>  <COMPOUND>
O=C(/C=C(\O)C(=O)O)/C=C(\O)c1ccc(Cl)cc1

>  <GI50>
> 100 µM (inactive)

$$$$
>  <COMPOUND>
Cc1nc2c(o1)/C(=N\c1ccccc1)c1ccccc1C2=O

>  <GI50>
13.5 µM (inactive)

$$$$
>  <COMPOUND>
Cc1ccc(C2=Nc3ccccc3SC(c3cccc([N+](=O)[O-])c3)C2)cc1 (stereo unspecified)

>  <GI50>
27.6 µM (inactive)

$$$$
>  <COMPOUND>
CC1C[C@H](C)CC(C(O)CC2CC(=O)N(Cc3ccccc3)C(=O)C2)C1O (stereo partly specified)

>  <GI50>
> 100 µM (inactive)

$$$$
>  <COMPOUND>
CCCNc1ncnc2c1cnn2C

>  <GI50>
> 100 µM (inactive)

$$$$
>  <COMPOUND>
CC1(C)C=C(/C=N/Nc2ccc(Br)cc2)C(C#N)=C(O)C1(C#N)C#N

>  <GI50>
63 µM (inactive)

$$$$

* * *

Test system: SN12C
Experiment: NCI tumour cell line growth inhibition, 48 h
Calls of active or inactive are those of the source. No stated cut-off is given here; in the data, active = GI50 up to about 1.1 µM and inactive = higher.

>  <COMPOUND>
COc1nc(OC)nc(-c2cccc(F)c2)n1

>  <GI50>
16.2 µM (inactive)

$$$$
>  <COMPOUND>
Nc1ccccc1C(=O)CC1OC(=O)c2ccccc21 (stereo unspecified)

>  <GI50>
> 100 µM (inactive)

$$$$
>  <COMPOUND>
O=c1[nH]c2nc3ccccc3c(=O)n2/c1=C/c1ccc(O)cc1

>  <GI50>
30.6 µM (inactive)

$$$$
>  <COMPOUND>
Clc1nc(Cl)c(Cl)c(Cl)n1

>  <GI50>
20.6 µM (inactive)

$$$$
>  <COMPOUND>
COc1ccc(N2C(=O)/C(=C/c3ccc(N(CCC#N)CCC#N)cc3)N=C2c2ccccc2)cc1

>  <GI50>
> 100 µM (inactive)

$$$$
>  <COMPOUND>
N#Cc1c(-c2ccc(Cl)cc2)c2c([nH]c1=O)-c1cc([N+](=O)[O-])ccc1CCC2

>  <GI50>
17.2 µM (inactive)

$$$$

* * *

Test system: NCI-H522
Assay: NCI tumour cell line growth inhibition, 48 h
The source made the active and inactive calls. No stated cut-off is given here; in the data, active = GI50 up to about 1.1 µM and inactive = higher.
Outcome codes: active, inactive

>  <COMPOUND>
COc1ccc(-c2cnoc2-c2ccc(OC)c(OC)c2)cc1OC

>  <QUALITATIVE LABEL>
active

$$$$
>  <COMPOUND>
O=C(O)c1ccc(C2C3C=CC(C3)C2[N+](=O)[O-])cc1 (stereo not given)

>  <QUALITATIVE LABEL>
inactive

$$$$
>  <COMPOUND>
O=C1/C(=C/c2ccc(Cl)cc2)CNC/C1=C\c1ccc(Cl)cc1

>  <QUALITATIVE LABEL>
inactive

$$$$
>  <COMPOUND>
CCC(C)(C)c1ccc(OCCCCNC(=O)c2ccc3ccccc3c2O)c(C(C)(C)CC)c1

>  <QUALITATIVE LABEL>
inactive

$$$$
>  <COMPOUND>
COc1ccc(N2CC(=O)N(C(=O)COc3ccc(OCC(=O)N4C(=O)CN(c5ccc(OC)cc5)C4=S)cc3)C2=S)cc1

>  <QUALITATIVE LABEL>
inactive

$$$$

* * *

Recorded measurements of GI50, one per entry
System: SF-268
Assay: NCI tumour cell line growth inhibition, 48 h
Calls of active or inactive are those of the source. Cut-off read from the data, not from the text of the source: active = GI50 up to about 1.1 µM and inactive = higher.
PROPERTY NAME: GI50

>  <MOLECULE>
O=C(O)CN1CCCC(Cc2c[nH]c3ccccc23)C1 (stereo unspecified)

>  <TGT>
SF-268

>  <RESULT>
> 100 µM (inactive)

$$$$
>  <MOLECULE>
Cc1ccc(/N=N/c2c(-c3ccccc3)nn(C(=O)CC(=O)Nc3ccc(Cl)cc3)c2-c2ccccc2)cc1

>  <TGT>
SF-268

>  <RESULT>
70.5 µM (inactive)

$$$$
>  <MOLECULE>
Cc1cc(N(CCC#N)CCC#N)ccc1/N=N/c1ccc(Br)cc1

>  <TGT>
SF-268

>  <RESULT>
22.3 µM (inactive)

$$$$
>  <MOLECULE>
COC(=O)[C@@H]1OC(C)(c2ccccc2)O[C@H]1C(=O)OC

>  <TGT>
SF-268

>  <RESULT>
> 100 µM (inactive)

$$$$
>  <MOLECULE>
CCOc1ccc(/N=C\c2ccc3cc(C)ccc3n2)cc1

>  <TGT>
SF-268

>  <RESULT>
69 µM (inactive)

$$$$
>  <MOLECULE>
NC(=S)N/N=C/c1ccc(OC(=O)COc2ccccc2Cl)cn1

>  <TGT>
SF-268

>  <RESULT>
17.9 µM (inactive)

$$$$

* * *

Test system: OVCAR-3
Test: NCI tumour cell line growth inhibition, 48 h
Activity calls are given as the source filed them. Cut-off read from the data, not from the text of the source: active = GI50 up to about 1.1 µM and inactive = higher.

>  <MOLECULE>
CC(=O)NC1=C(NCCN(C)C)C(=O)c2ccccc2C1=O

>  <GI50>
14.7 µM (inactive)

$$$$
>  <MOLECULE>
O=Cc1ccccc1COC(=O)c1cc(C(=O)OCc2ccccc2C=O)c(C(=O)OCc2ccccc2C=O)cc1C(=O)OCc1ccccc1C=O

>  <GI50>
> 100 µM (inactive)

$$$$
>  <MOLECULE>
CCOC(OCC)[C@H](N)[C@@H](O)[C@@H](O)[C@H]1COC(C)(C)O1

>  <GI50>
> 100 µM (inactive)

$$$$
>  <MOLECULE>
CCOC(=O)Cn1nc2ccc(Nc3c(C)[n+]([O-])c4cc(F)c(OCC)cc4[n+]3[O-])cc2n1

>  <GI50>
> 100 µM (inactive)

$$$$
>  <MOLECULE>
O=[N+]([O-])c1ccc2c(c1)N=C1OC(c3c[nH]c4ccc(COc5ccccc5)cc34)C(O)=C1N2 (stereo not given)

>  <GI50>
> 100 µM (inactive)

$$$$
>  <MOLECULE>
CN(C)c1ccc(/C=C2\CCc3ccccc3C2=O)cc1Br

>  <GI50>
49 µM (inactive)

$$$$
>  <MOLECULE>
Cc1ccc(S(=O)(=O)c2ccsc2NC(=O)C(F)(F)F)cc1

>  <GI50>
42.6 µM (inactive)

$$$$
>  <MOLECULE>
O=[N+]([O-])c1ccc(Sc2c3ccccc3nc3ccccc23)cc1

>  <GI50>
> 100 µM (inactive)

$$$$
>  <MOLECULE>
O=C(O)CC1NCc2cc3ccccc3nc21 (stereo not given)

>  <GI50>
> 100 µM (inactive)

$$$$
>  <MOLECULE>
C(/C=N/N=C1NCCCN1)=N\N=C1NCCCN1

>  <GI50>
> 100 µM (inactive)

$$$$
>  <MOLECULE>
Cc1cccc(-c2cccc(COCc3cccc(-c4cccc(CO)n4)n3)n2)n1

>  <GI50>
3.7 µM (inactive)

$$$$
>  <MOLECULE>
Cc1cc(C)c(S(=O)(=O)N2CCN(S(=O)(=O)c3c(C)cc(C)cc3C)OCCCCCO2)c(C)c1

>  <GI50>
> 100 µM (inactive)

$$$$
>  <MOLECULE>
COC(=O)c1cc(C)ccc1/C=C1\Cc2cccc(C)c2C1=O

>  <GI50>
19.5 µM (inactive)

$$$$
>  <MOLECULE>
Cc1nc2c(o1)/C(=N\c1ccccc1)c1ccccc1C2=O

>  <GI50>
2.54 µM (inactive)

$$$$
>  <MOLECULE>
CC(=O)/C=C(/C=N/O)c1ccccc1

>  <GI50>
> 100 µM (inactive)

$$$$
>  <MOLECULE>
N#Cc1c(-c2ccc(Cl)cc2)c2c([nH]c1=O)-c1cc([N+](=O)[O-])ccc1CCC2

>  <GI50>
12.8 µM (inactive)

$$$$
>  <MOLECULE>
Cc1ccc(C2=Nc3c(c(C)nn3-c3ccccc3)N=C(C(=O)O)C2)cc1

>  <GI50>
> 10 µM (inactive)

$$$$
>  <MOLECULE>
CC1=CC(=O)/C(=C/NC(=O)NN)C(=O)O1

>  <GI50>
> 100 µM (inactive)

$$$$
>  <MOLECULE>
Nc1c(Cl)c([N+](=O)[O-])cc2c1OCCCCO2

>  <GI50>
> 100 µM (inactive)

$$$$
>  <MOLECULE>
COc1ccc(OC)c(CNc2ccc(O)c(C(=O)NCCc3ccc(F)cc3)c2)c1

>  <GI50>
7.57 µM (inactive)

$$$$

// data source = ChEMBL document CHEMBL1201862
